Parameter Kd: see the listing below.
Molecular target: eOD-GT8 (monomeric ligand) (Human immunodeficiency virus 1, …)
A number alone suffices; assume nM.

BINDER: g28-D78-8_CLK09 (antibody, V domains shown) VH: QLQLVQSGAEVKKPGASVKVSCKASRYTFTGYFIHWVRQAPGQGLEWMGWLNPIYGGVNYARNFQDRVTMTRDTSISTAYLELRRLKSDDTAVYYCARVAERMIFDVWGQGTMVTVSS VL: DIQMTQSPSSLSASVGDRVTIACQASQDISNYVNWYQQKPGKAPKLLIYDASNLETGVPSRFSGSGSGTDFTFTISSLQPEDIATYYCQQYEFFGGGTKVRIK
Kd, nM: 8
--
BINDER: g28-D78-15_CLK09 (antibody, V domains shown) VH: QLQLVQSGADVKTPGASVKVSCKASGYTFTSYFIHWVRQAPGQGLEWMGWLNPIYGAVNYARNFQDRVTMTRDTSISTAYLELRRLKSDDTAVYYCARVAERMIFDVWGQGTMVTVSS VL: DIQMTQSPSSLSASVGDRVTIACQASQDINNYVNWYQQKPGKAPKLLIYDASNLETGVPSRFSGSGSGTDFTFTISSLQPEDIATYYCQQYEFFGGGTKVEIK
Kd, nM: 160

Attention now turns to another entry.
QUERY: Please report the recorded Kd for g5-D78-4_CLK19 (antibody, V domains shown) VH: QVQLVQSGAEVKKPGASVKVSCKASGYIFTDYNMHWVRQAPGQGLEWMGWINPRFGGRNIVQKFQGRVTMTRDTSSSTAYMELSGLRSDDTAVYFCTPVLAPFRWPFAYWGQGTLVTVSS VL: DIQMTQSPSSLSASVGDRVTITCQASQDINYLNWYQQKPGKAPKLLIYDASNLETGVPSRFSGSGSGTDFTFTISSLQPEDIATYYCQQYAAFGPGTKVDIK .
RESULT: 2.1
